Listed here are compounds together with their documented pIC50.
- Tested on: Leishmania infantum
- testDescription: Antileishmanial activity against Leishmania infantum MCAN/BR/97/P142 promastigotes after 24 hrs
- Type: functional, organism-based
- protocolConditions: MCAN/BR/97/P142, 24 h
pIC50: −log10 of the molar value.

itemSmiles	pIC50
Cc1nn(-c2ccc(S(=O)(=O)Nc3ccccc3)cc2)c(Cl)c1Br	4.23
N=C(N)c1ccc(OCCCCCOc2ccc(C(=N)N)cc2)cc1	4.21

// provenance: ChEMBL document CHEMBL4177593
